# study.target: Potassium voltage-gated channel subfamily A member 5 (Homo sapiens)
# Sequence (P22460 whole entry): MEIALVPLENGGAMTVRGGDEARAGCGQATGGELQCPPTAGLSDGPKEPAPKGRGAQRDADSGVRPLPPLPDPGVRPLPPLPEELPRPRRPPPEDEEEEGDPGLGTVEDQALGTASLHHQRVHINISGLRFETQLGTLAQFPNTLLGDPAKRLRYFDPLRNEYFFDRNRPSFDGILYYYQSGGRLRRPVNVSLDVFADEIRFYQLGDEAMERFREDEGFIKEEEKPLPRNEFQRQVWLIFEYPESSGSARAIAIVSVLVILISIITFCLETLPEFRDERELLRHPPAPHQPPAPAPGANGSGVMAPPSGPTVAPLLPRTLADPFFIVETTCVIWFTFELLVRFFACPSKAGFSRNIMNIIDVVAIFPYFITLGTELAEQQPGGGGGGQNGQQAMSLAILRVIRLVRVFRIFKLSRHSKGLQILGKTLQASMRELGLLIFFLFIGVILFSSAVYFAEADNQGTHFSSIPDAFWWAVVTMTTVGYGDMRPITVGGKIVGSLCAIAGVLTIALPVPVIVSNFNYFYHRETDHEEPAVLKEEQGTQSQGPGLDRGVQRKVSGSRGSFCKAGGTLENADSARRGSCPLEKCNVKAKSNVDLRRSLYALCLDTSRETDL
# assay.protocol: Inhibition of Kv1.5 mediated ultra-rapid delayed rectifier current Ikur in human atrial cells
# Format: functional, cell-based, Cardiac atrium
assay.readout: IC50 (nM)

1: COc1cccc(CON2C(=O)CSC2c2ccc(Cl)cc2)c1 (configuration not stated)
2: COc1ccccc1CON1C(=O)CSC1c1ccc(C)c(C)c1 (configuration not stated)
Hi team, can someone confirm which has the larger IC50: 1 or 2 ? Thanks. Record your answer as the label of the chosen record.
1

----------
# study.target: UniProt P22460
# assay.protocol: Inhibition of Kv1.5 mediated ultra-rapid delayed rectifier current Ikur in human atrial cells
assay.readout: IC50 (nM)

Use these answered entries as a reference point.
COc1ccc(CON2C(=O)CSC2c2ccc(Cl)cc2)cc1 (stereo not given) :: 187
COc1ccc(CCN2C(=O)CSC2(C)c2ccc(C)c(C)c2)cc1 (stereo not given) :: 69

P: COc1cccc(CON2C(=O)CSC2c2ccc(Cl)c(Cl)c2)c1 (stereo not given)
Q: COc1ccc(CC(=O)N2CCSC2c2ccc(C)c(C)c2)cc1 (stereo not given)
Hey, between P and Q which has a smaller measured IC50? Record your answer as the label of the chosen record.
P

1: COc1ccccc1CON1C(=O)CSC1c1ccc(Cl)c(Cl)c1 (stereo not given)
2: COc1ccc(CCN2C(=O)CSC23CCc2cc(Cl)ccc23)cc1 (stereo not given)
Hi team, can someone confirm which has the larger IC50: 1 or 2 ? Thanks. Record your answer as the label of the chosen record.
2
(2: 812 nM, 1: 204 nM)

I: COc1ccc(CCC(=O)N2CCSC2c2ccc(C)c(C)c2)cc1 (stereo not given)
II: COc1ccc(CCN2C(=O)CSC2(C)c2ccc(C)cc2)cc1 (stereo not given)
Hi team, can someone confirm which has the larger IC50: I or II ? Thanks. Record your answer as the label of the chosen record.
II
(II: 390 nM, I: 150 nM)

A: COc1ccc(CON2C(=O)CSC2c2ccc(Cl)c(Cl)c2)cc1 (stereo not given)
B: Cc1ccc(C2SCC(=O)N2OCc2ccccc2)cc1C (stereo not given)
Hi team, can someone confirm which has the larger IC50: A or B ? Thanks. Record your answer as the label of the chosen record.
B
(B: 207 nM, A: 113 nM)

Cited source: ChEMBL document CHEMBL1137597
